reported-conditions: in acetone, 308.1 K
recorded-metric: solubility (mole fraction)
// no unit, no text: just the number

## Task Requested field: solubility (mole fraction). Item: c1cc2c3c(cccc3c1)CC2
## Result 0.0954

###

reported-conditions: in isobutanol, 298 K
recorded-metric: solubility (mole fraction)
Response field accepts a number only; no unit should be typed.

## Task Can you look up the measured solubility (mole fraction) of c1cc2c3c(cccc3c1)CC2 for me?
## Result 0.0205

###

reported-conditions: in n-propanol, 288.1 K
recorded-metric: solubility (mole fraction)
Answer with a bare number; do not write a unit.

## Task Need solubility (mole fraction), item c1cc2c3c(cccc3c1)CC2
## Result 0.012

###

reported-conditions: in m-xylene, 303.1 K
recorded-metric: solubility (mole fraction)
Form rule: numeric answer, no unit written next to it.

## Task Quick one: solubility (mole fraction) for c1cc2c3c(cccc3c1)CC2 ?
## Result 0.188

###

reported-conditions: in isobutanol, 313.1 K
recorded-metric: solubility (mole fraction)

## Task What value of solubility (mole fraction) has been reported for the following compound? c1cc2c3c(cccc3c1)CC2
## Result 0.0353

###

reported-conditions: in acetone, 288 K
recorded-metric: solubility (mole fraction)
Could you respond with only the numeric value?

## Task Need solubility (mole fraction), item c1cc2c3c(cccc3c1)CC2
## Result 0.0491

###

reported-conditions: in benzene, 293.2 K
recorded-metric: solubility (mole fraction)
Lab note: jot the number down without any unit.

## Task Quick check: solubility (mole fraction) of c1cc2c3c(cccc3c1)CC2 ?
## Result 0.142

###

reported-conditions: in m-xylene, 288 K
recorded-metric: solubility (mole fraction)
Lab note: write the figure by itself, no unit.

## Task Consider the compound c1cc2c3c(cccc3c1)CC2 and give its measured solubility (mole fraction).
## Result 0.129

###

reported-conditions: in benzene, 313 K
recorded-metric: solubility (mole fraction)
Lab note: write the figure by itself, no unit.

## Task Report solubility (mole fraction) for c1cc2c3c(cccc3c1)CC2 please.
## Result 0.244

###

reported-conditions: in n-propanol, 323 K
recorded-metric: solubility (mole fraction)
Note: the reply should be a number with no unit written.

## Task Would you mind telling me what solubility (mole fraction) value was observed for c1cc2c3c(cccc3c1)CC2 ?
## Result 0.0464

###

reported-conditions: in acetone, 283 K
recorded-metric: solubility (mole fraction)
Give the value as a plain number.

## Task // solubility (mole fraction) lookup, key: c1cc2c3c(cccc3c1)CC2
## Result 0.0417

###

reported-conditions: in m-xylene, 298 K
recorded-metric: solubility (mole fraction)
Form rule: numeric answer, no unit written next to it.

## Task Return reported solubility (mole fraction); argument: c1cc2c3c(cccc3c1)CC2
## Result 0.163

###

reported-conditions: in isobutanol, 318 K
recorded-metric: solubility (mole fraction)

## Task Data request, read-out solubility (mole fraction), for c1cc2c3c(cccc3c1)CC2
## Result 0.0435

###

reported-conditions: in acetone, 303 K
recorded-metric: solubility (mole fraction)
Enter the number alone.

## Task Entry under review: c1cc2c3c(cccc3c1)CC2 . Reported solubility (mole fraction)?
## Result 0.0788

###

reported-conditions: in benzene, 318 K
recorded-metric: solubility (mole fraction)

## Task Look at this molecule and give its reported solubility (mole fraction). c1cc2c3c(cccc3c1)CC2
## Result 0.277
